target of assay: T1, recombinant biotinylated human CD71 extracellular domain (human, UniProt P02786 89-760, biotinylated)
T1 construct: extracellular domain; also called hCD71; huCD71 ECD
T1 sequence (P02786 other isoform, or with tags, fused parts or gaps): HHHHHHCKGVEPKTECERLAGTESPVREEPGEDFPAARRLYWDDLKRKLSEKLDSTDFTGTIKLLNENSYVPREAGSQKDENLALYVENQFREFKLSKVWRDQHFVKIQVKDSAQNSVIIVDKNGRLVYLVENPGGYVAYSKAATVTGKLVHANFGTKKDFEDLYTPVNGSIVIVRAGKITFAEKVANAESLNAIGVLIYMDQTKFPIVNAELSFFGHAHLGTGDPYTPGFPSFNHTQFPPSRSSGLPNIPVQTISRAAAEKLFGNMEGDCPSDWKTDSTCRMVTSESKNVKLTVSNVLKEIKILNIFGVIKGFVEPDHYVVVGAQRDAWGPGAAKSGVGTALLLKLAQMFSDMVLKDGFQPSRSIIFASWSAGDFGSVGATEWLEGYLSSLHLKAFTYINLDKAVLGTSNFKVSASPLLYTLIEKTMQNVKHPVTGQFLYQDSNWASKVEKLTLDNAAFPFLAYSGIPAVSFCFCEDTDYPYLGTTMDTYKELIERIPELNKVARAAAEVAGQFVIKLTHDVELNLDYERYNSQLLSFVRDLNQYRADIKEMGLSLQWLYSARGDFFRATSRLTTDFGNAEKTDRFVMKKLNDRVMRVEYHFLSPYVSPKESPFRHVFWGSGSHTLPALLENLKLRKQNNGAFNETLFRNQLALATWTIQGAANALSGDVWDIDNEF
assay text: solution ELISA
For each record, write down the corresponding hCD71, RLU.
Give bare numbers, in RLU.

binder: SEQ ID NO 196 (designed binder, FN3 domain) MLPAPKNLVVSRVTEDSARLSWTAPDAAFDSFYIAYAEPRPDGEAIVLWVPGSERSYDLTGLKPGTEYSVLIHGVKGGLLSSPLRASFTT
hCD71, RLU, RLU: 2.13e+06
//
binder: SEQ ID NO 120 (designed binder, FN3 domain) MLPAPKNLVVSRVTEDSARLSWTAPDAAFDSFYIAYAEPRPDGEAIHLSVPGSERSYDLTGLKPGTEYSVLIHGVKGGLLSSPLVAIFTT
hCD71, RLU, RLU: 501000
//
binder: SEQ ID NO 137 (designed binder, FN3 domain) MLPAPKNLVVSRVTEDSARLSWTAPDAAFDSFYIAYAEPRPDGEAIVLDVPGSERSYDLTGLKPGTEYSVLIHGVKGGLLSSPLVAEFTT
hCD71, RLU, RLU: 5.11e+06

For every item in the list below, what is its measured hCD71, RLU?
1. SEQ ID NO 172 (designed binder, FN3 domain) MLPAPKNLVVSRVTEDSARLSWTAPDAAFDSFFIGYLEPQPPGEAIVLTVPGSERSYDLTGLKPGTEYNVTIQGVKGGFPSMPLASFTT
2. SEQ ID NO 191 (designed binder, FN3 domain) MLPAPKNLVVSRVTEDSARLSWTAPDAAFDSFFIGYLEPQPPGEAIILAVPGSERSYDLTGLKPGTEYNVTIQGVKGGFPSLPLVASFTT
3. SEQ ID NO 166 (designed binder, FN3 domain) MLPAPKNLVVSRVTEDSARLSWTAPDAAFDSFYIAYAEPRPDGEAIFLQVPGSERSYDLTGLKPGTEYSVLIHGVKGGLLSSPLNAFFTT
4. SEQ ID NO 199 (designed binder, FN3 domain) MLPAPKNLVVSRVTEDSARLSWTAPDAAFDSFYIAYAEPRPDGEAIHLWVPGSERSYDLTGLKPGTEYSVLIHGVKGGLLSSPLHADFTT

377000
3.86e+06
1.22e+06
416000
